# Tested on: Fibroblast
# protocol-summary: Multiplex assay against human fibroblast
# Assay type: toxicity, cell-based
# condition-notes: 24 h, 10 µM, compound concentration 10 uM, replicate 2
quantity-name: Population Pyknosed Nuclei (%)

Query block: Give reported Population Pyknosed Nuclei (%) for Cn1cc(-c2[nH]c3cc(NC(=O)[C@H](N)C4CCCCC4)cc4c3c2C=NNC4=O)cn1 (Fibroblast)
Result block: 36%

Query block: Look up Fibroblast data: Population Pyknosed Nuclei (%) of CC(C)(O)CNc1ncc(-c2ccnc(Nc3ccnc(Cl)c3)n2)c(CC2CC2)n1 , then report it.
Result block: 44%

Query block: State measured Population Pyknosed Nuclei (%) of the compound Cc1cc(C)cc(-c2cnc3cc(Cl)c(-c4cccc(O)c4)cc3c2OCCCN)c1 with Fibroblast.
Result block: 72%

Query block: Name the value of Population Pyknosed Nuclei (%) reported for O=C(NCCCC1CCCCC1)c1ccc(CNC(=O)c2cnn(-c3ccccc3)c2C(F)(F)F)cc1 [SR-321] when tested on Fibroblast.
Result block: 15% [middle of 4 runs]

Query block: Answer briefly: Population Pyknosed Nuclei (%) recorded on Fibroblast for Cc1nc(-c2cn3c(n2)-c2ccc(-c4cnn(C(C)(C)C(N)=O)c4)cc2OCC3)n(C(C)C)n1 [TASELISIB]
Result block: 9%

Query block: Return reported Population Pyknosed Nuclei (%) for target or system Fibroblast, item CN1CCN(c2ccc(OC(F)(F)F)c(Nc3ncc4c(n3)-c3c(c(C(N)=O)nn3CCO)CC4)c2)CC1 [ONVANSERTIB] .
Result block: 11%

Query block: Give reported Population Pyknosed Nuclei (%) for OC1(c2ccc(Cl)cc2)CCN(Cc2c[nH]c3ccccc23)CC1 (Fibroblast)
Result block: 51%

Query block: State recorded Population Pyknosed Nuclei (%) with Fibroblast, entry NC(=O)Nc1cc(-c2cccc(F)c2)sc1C(=O)N[C@H]1CCCNC1 [AZD-7762] , no comment.
Result block: 66%

Query block: Fill in: Population Pyknosed Nuclei (%) on Fibroblast, entry COc1cc(-n2cnc3cc(-c4ccc(Cl)cc4)sc3c2=O)ccc1OCCN1CCCC1
Result block: 23%

---

Would you kindly list Growth Rate for each of these compounds?
# Tested on: U2OS
# protocol-summary: Incucyte cell viability with U2OS; also: filed as whole numbers so only -1 and 0 and 1 occur
# Assay type: toxicity, cell-based
# condition-notes: human, 12 h, 10 µM, compound concentration 10 uM, replicate number 1, timepoint 12 hours
Give the figure only, with no unit attached.

Query block: Provide Growth Rate, tested on U2OS, for Cc1nc(C(=O)N2CCC[C@H]2Cc2nnc(-c3ccccc3)o2)c(-c2ccccc2F)s1 .
Result block: 0

Query block: Write down measured Growth Rate (U2OS) for this compound. COc1ncc(-c2ccc3nccc(-c4ccnnc4)c3c2)cc1NS(=O)(=O)c1ccc(F)cc1F [OMIPALISIB]
Result block: 1

Query block: Would you please give the reported Growth Rate of CC[C@H](C)C(=O)O[C@H]1C[C@@H](C)C=C2C=C[C@H](C)[C@H](CC[C@@H]3C[C@@H](O)CC(=O)O3)[C@H]21 [LOVASTATIN] with U2OS?
Result block: 0

Query block: Lab note: U2OS assay, enter Growth Rate for CN1C(=O)c2sccc2N(C)c2nc(Nc3ccc(S(N)(=O)=O)cc3)ncc21 here
Result block: 0

---

Could you please report measured Total Cell Count for the items listed next?
# System: U2OS
# protocol-summary: Multiplex assay against U2OS
# Assay type: toxicity, cell-based
# condition-notes: human, 12 h, 1 µM, compound concentration 1 uM, replicate 1
Reply with just the number.

Query block: Return Total Cell Count (reported value) for this compound: C=CC(=O)Nc1cc2c(Nc3ccc(F)c(Cl)c3)ncnc2cc1OCCCN1CCOCC1.Cl.Cl [CANERTINIB DIHYDROCHLORIDE]
Result block: 137

Query block: Respond only with Total Cell Count recorded for c1cn2cc(-c3ccc4cn[nH]c4c3)nc(Nc3ccc(N4CCOCC4)cc3)c2n1
Result block: 172

Query block: Could you please provide reported Total Cell Count for COc1ncc(-c2ccc3nccc(-c4ccnnc4)c3c2)cc1NS(=O)(=O)c1ccc(F)cc1F ? Thanks!
Result block: 135

Query block: Look up Total Cell Count of COc1cc(-n2cnc3cc(-c4ccc(Cl)cc4)sc3c2=O)ccc1OCCN1CCCC1 and report it.
Result block: 157

Query block: Please indicate Total Cell Count recorded for Cc1cc(C)cc(-c2cnc3cc(Cl)c(-c4cccc(O)c4)cc3c2OCCCN)c1
Result block: 132

Query block: Answer with reported Total Cell Count of CCN(CC)CCCCNc1ncc2cc(-c3cc(OC)cc(OC)c3)c(NC(=O)NC(C)(C)C)nc2n1
Result block: 280

Query block: Write down Total Cell Count measured for item CN1CCN(CCOc2cc(OC3CCOCC3)c3c(Nc4c(Cl)ccc5c4OCO5)ncnc3c2)CC1
Result block: 138

Query block: Name the recorded Total Cell Count of the item CNc1nc(NCc2ccc(NS(C)(=O)=O)cc2Cl)cc(-c2ccccn2)n1 in your answer.
Result block: 121

Query block: // fetch Total Cell Count given entry Cc1c(-c2ccc(O)cc2)n(Cc2ccc(OCCN3CCCCCC3)cc2)c2ccc(O)cc12
Result block: 144

Query block: Let me know recorded Total Cell Count for COc1cccc([C@@H](C)NCCCc2ccccc2Cl)c1.Cl [TECALCET HYDROCHLORIDE] , thanks.
Result block: 188

Query block: Give recorded Total Cell Count. CN(C)CC#Cc1ccc(OCCCc2sc(N3CCc4cccc(C(=O)Nc5nc6ccccc6s5)c4C3)nc2C(=O)O)c(F)c1
Result block: 175

Query block: Please indicate Total Cell Count recorded for CC(C)NCC(O)COc1ccc(CCOCC2CC2)cc1.Cl (stereo unspecified) [BETAXOLOL HYDROCHLORIDE]
Result block: 175

Query block: # return recorded Total Cell Count for input Cc1nc(-c2ccc(-c3ccc(C(=O)N4CCc5cc6c(cc54)C4(CCN(C)CC4)CO6)cc3)c(C)c2)no1
Result block: 130

Query block: Report Total Cell Count, nothing else, for this compound: Cc1[nH]c(/C=C2\C(=O)Nc3ccc(S(=O)(=O)N(C)c4cccc(Cl)c4)cc32)c(C)c1C(=O)N1CCN(C)CC1
Result block: 305

Query block: Find the measured Total Cell Count of C=CC(=O)Nc1cccc(C(=O)Nc2ccc(Nc3cc(-c4[nH]c(SC)nc4C)ccn3)cc2)c1 and report it.
Result block: 259

---

# System: HEK-293T
# protocol-summary: Multiplex assay against HEK293T
# Format: toxicity, cell-based
# condition-notes: human, 24 h, 1 µM, compound concentration 1 uM, replicate 1
quantity-name: Population Mitochondria Different-Phenotype (%)
State just the number; it will be interpreted in %.

Query block: State its Population Mitochondria Different-Phenotype (%): CC(C)NCC(O)COc1ccc(CCOCC2CC2)cc1.Cl (centres undefined) [BETAXOLOL HYDROCHLORIDE]
Result block: 65

Query block: For the compound Cl.N#Cc1ccc2[nH]cc(CCCCN3CCN(c4ccc5oc(C(N)=O)cc5c4)CC3)c2c1 [VILAZODONE HYDROCHLORIDE] , give its reported Population Mitochondria Different-Phenotype (%).
Result block: 87

Query block: Quick one: give measured Population Mitochondria Different-Phenotype (%) for c1cn2cc(-c3ccc4cn[nH]c4c3)nc(Nc3ccc(N4CCOCC4)cc3)c2n1
Result block: 93

Query block: Give Population Mitochondria Different-Phenotype (%) for the following compound: CC[C@H](C)C(=O)O[C@H]1C[C@@H](C)C=C2C=C[C@H](C)[C@H](CC[C@@H]3C[C@@H](O)CC(=O)O3)[C@H]21
Result block: 52

---

Can you tell me Population Membrane Permeable-Phenotype (%) for the items I'm about to list?
# Tested on: U2OS
# protocol-summary: Multiplex assay against U2OS
# Type: toxicity, cell-based
# condition-notes: human, 48 h, 10 µM, compound concentration 10 uM, replicate 1
Express your answer in %, writing the number without its unit.

Query block: Item CCOCCn1cc(C(=O)Nc2ccc(-n3nc(-c4cccnc4)cc3C(F)(F)F)cn2)ccc1=O [BI 1935] : provide Population Membrane Permeable-Phenotype (%)
Result block: 15

Query block: Respond only with Population Membrane Permeable-Phenotype (%) recorded for CNCc1ccccc1-c1csc([C@H](C)Nc2nc(C)nc3cc(OC)c(OC)cc23)c1 [BAY-294]
Result block: 100

Query block: Recall and state the measured Population Membrane Permeable-Phenotype (%) for COc1cc(-n2cnc3cc(-c4ccc(Cl)cc4)sc3c2=O)ccc1OCCN1CCCC1 .
Result block: 88

Query block: Consider the compound CCn1c(=O)c(-c2ccc(Cl)cc2Cl)cc2cnc(Nc3ccc(N4CCNCC4)c(F)c3)nc21 . State its measured Population Membrane Permeable-Phenotype (%).
Result block: 75

Query block: Determine its reported Population Membrane Permeable-Phenotype (%): c1cn2cc(-c3ccc4cn[nH]c4c3)nc(Nc3ccc(N4CCOCC4)cc3)c2n1 [ENTOSPLETINIB]
Result block: 7

Query block: Input CC(C)NCC(O)COc1ccc(CCOCC2CC2)cc1.Cl (stereo not drawn) [BETAXOLOL HYDROCHLORIDE] , output reported Population Membrane Permeable-Phenotype (%).
Result block: 3

Query block: State, in one line, measured Population Membrane Permeable-Phenotype (%) of Cc1[nH]c(/C=C2\C(=O)Nc3ccc(S(=O)(=O)N(C)c4cccc(Cl)c4)cc32)c(C)c1C(=O)N1CCN(C)CC1
Result block: 76

Query block: For COc1cccc([C@@H](C)NCCCc2ccccc2Cl)c1.Cl [TECALCET HYDROCHLORIDE] , write its Population Membrane Permeable-Phenotype (%).
Result block: 7
